# STUDY TARGET: HLA-DR2b molecules (Homo sapiens, UniProt P01903+P01911)
# Construct: made in house; host or cells: L cells co-transfected with HLA-DRA and HLA-DRB1*1501
# ASSAY NOTES: competitive ELISA (dissociation-enhanced lanthanide fluoroimmunoassay) with biotinylated CLIP 97-120 as tracer on purified DR2b molecules
# Assay type: binding
# STATED CONDITIONS: acetylated nonapeptide amides; 48 hours at 37° C.; 50 nM DR2b, 50 nM biotinylated CLIP 97-120; read-out: IC50 for binding to HLA-DR2b molecules
Entries and their IC50 values follow.

Observe how each entry below is paired with its result.
Q: I have this substance here, Ac-DIYWYSSWP-NH2 [HuPb32, DIYWYSSWP] , and I need its recorded IC50.
A: < 1 nM

Q: Record: Ac-MLIYYSSYL-NH2 [HuPb28, MLIYYSSYL]
A: < 1 nM

More entries:
Q: I have this substance here, Ac-PYEAQELHE-NH2 [HuPb14, PYEAQELHE] , and I need its recorded IC50.
A: > 100000 nM

Q: Record: Ac-MIDWYSSWP-NH2 [HuPb34, MIDWYSSWP]
A: 1 nM
